Test: in vitro
Conditions: human, hela cells, % viability
Parameter: viability at 28.5 h, 10 µM. Scope: all listed entries.
# output: bare number, implied unit %

Solved cases below.
Note down viability at 28.5 h, 10 µM recorded for CCCc1ncc(C[n+]2ccccc2C)c(N)n1 [CBK024255C]
96.1

Note down viability at 28.5 h, 10 µM recorded for O=C(O)c1ccc2[nH]c(=O)[nH]c2c1
81.3

Note down viability at 28.5 h, 10 µM recorded for CC(C)NS(=O)(=O)c1ccc(OCC(=O)Nc2ccc3c(c2)OCO3)c(Cl)c1
92.5

Note down viability at 28.5 h, 10 µM recorded for O=C(NCCOc1ccccc1F)C1CC(=O)N(Cc2ccccn2)C1 (stereo not shown)
104

Note down viability at 28.5 h, 10 µM recorded for CCn1cc(S(=O)(=O)NC2(c3ccccc3)CCCC2)cn1
90.6

Note down viability at 28.5 h, 10 µM recorded for C=CCn1c(-c2sc(NC(=O)c3cc4ccccc4s3)nc2C)n[nH]c1=S
94.8

Next:
Note down viability at 28.5 h, 10 µM recorded for O=C(Nc1ccccc1)NC1CC2CCC(C1)N2Cc1nnnn1Cc1ccco1 (stereo not shown)
107

Note down viability at 28.5 h, 10 µM recorded for O=C(c1ccccc1F)N1CCC(n2cnc3cccnc32)CC1
87.5

Note down viability at 28.5 h, 10 µM recorded for CN(C)C(=O)CN1C(=O)N2CCCN=C2c2ccc(Cl)cc21
98.2

Note down viability at 28.5 h, 10 µM recorded for COc1cncc(C(NC(=O)c2cc(=O)cc(C)o2)[C@H]2C[C@@H](O)C2)c1 (stereo partly shown)
97.5

Note down viability at 28.5 h, 10 µM recorded for CC(C)(C)NC(=O)Cn1nc(-c2cc3c(s2)CCC3)oc1=O
101

Note down viability at 28.5 h, 10 µM recorded for Cc1c(CNC2(c3ccccc3F)CCCC2)c(=O)n(C)c(=O)n1C
85.1

Note down viability at 28.5 h, 10 µM recorded for N#Cc1c(-c2ccccc2)noc1C/C=N/O
87.7

Note down viability at 28.5 h, 10 µM recorded for C=C(C)CN1CCN(C(=O)C(CC)Oc2ccccc2F)CC1 (stereo not shown)
90.1

Note down viability at 28.5 h, 10 µM recorded for CCCC(=O)NCc1ccc(OC2CCNCC2)cc1 [CBK024489T]
95.6

Note down viability at 28.5 h, 10 µM recorded for CCO[C@H]1CN(C)C[C@@H]1NC(=O)c1cccc2c1NCCC2
90.4

Note down viability at 28.5 h, 10 µM recorded for O=C(NC[C@H]1O[C@@H](CC(=O)N2CCN(c3ccccc3)CC2)[C@H](O)[C@@H]1O)c1ccco1
97.9

Note down viability at 28.5 h, 10 µM recorded for CC(C)OC(=O)N1CCC(N(C)Cc2ccc(-c3ccc(S(C)(=O)=O)cc3)cn2)CC1 [CBK165581T]
90.8

Note down viability at 28.5 h, 10 µM recorded for Cc1ccc(NC(=O)N2CCC(C(=O)O)CC2)cc1
105

Note down viability at 28.5 h, 10 µM recorded for Cc1noc(C)c1C(=O)NC1(c2ccc(F)cc2)CCCC1
93.4

Note down viability at 28.5 h, 10 µM recorded for O=C(O)CCC(=O)N1N=C2C(=Cc3cccc([N+](=O)[O-])c3)CCCC2C1c1cccc([N+](=O)[O-])c1 (stereo not shown)
122

Note down viability at 28.5 h, 10 µM recorded for COc1ccc(C(C)C)cc1-c1cc(Nc2cc(OC)c(OC)c(OC)c2)n2nccc2n1
103

Note down viability at 28.5 h, 10 µM recorded for Cc1ccc(-c2ccc(N3CCCC(C(=O)O)C3)nn2)cc1C (stereo not shown)
95.8

Note down viability at 28.5 h, 10 µM recorded for Nc1ccc(Sc2nc3ccccc3nc2C(F)(F)F)cc1
100

Note down viability at 28.5 h, 10 µM recorded for NC(=O)CC[n+]1ccc2ccccc2c1 [CBK022857C]
110

====

Test: in vitro
Conditions: human, hela cells, % viability
Parameter: viability at 28.5 h, 10 µM. Scope: all listed entries.
# output: bare number, implied unit %

Note down viability at 28.5 h, 10 µM recorded for O=C(c1nc2ccccc2[nH]1)N1CCc2ccccc21 [CBK200411]
87.8

Note down viability at 28.5 h, 10 µM recorded for Cc1cc(CN(C)Cc2c(-c3ccccc3)nn(C)c2C)n[nH]1 [CBK281707]
88.8

Note down viability at 28.5 h, 10 µM recorded for O=c1[nH]c2cccc(O)c2o1 [CBK048613]
90.9

Note down viability at 28.5 h, 10 µM recorded for COc1ccc(-c2cnc(N)c(-c3ccc(C=O)cc3)n2)cn1 [CBK064096]
90.8

Next:
Note down viability at 28.5 h, 10 µM recorded for CCC(C(=O)NCC1CCCN(C(C)C)C1)n1cnc2ccccc21 (stereo not shown) [CBK282706]
88.6

Note down viability at 28.5 h, 10 µM recorded for Cc1ccc(S(=O)(=O)NC(C)(C)CSc2ccccc2)cc1 [CBK268354]
88.6

Note down viability at 28.5 h, 10 µM recorded for CC1CN(C(=O)Nc2ccccc2F)CC(C)O1 (stereo not shown) [CBK004990]
89.9

====

Assay: in vitro
Conditions: human, hela cells, % viability
Exam item: assign Fulfilled to entries whose viability at 28.5 h, 10 µM is below 90% and Not fulfilled to entries at or above 90%. Note that a value of exactly 90% receives Not fulfilled.

Please determine if O=C(C1CCCC1)N1CCC(n2c(=O)oc3ccccc32)CC1 is below 90% in terms of viability at 28.5 h, 10 µM.
Fulfilled

Please determine if COc1cc([N+](=O)[O-])ccc1NC(=O)NCc1ccc(C(=O)O)cc1 is below 90% in terms of viability at 28.5 h, 10 µM.
Fulfilled

Next:
Please determine if CCn1c(C)c(/C=C/c2nc3ccccc3c(=O)n2CCCO)c2ccccc21 is below 90% in terms of viability at 28.5 h, 10 µM.
Not fulfilled

Please determine if CC(NC(=O)CCN1CCN(C)CC1)c1cc2cc(Cl)ccc2o1 (stereo not drawn) is below 90% in terms of viability at 28.5 h, 10 µM.
Not fulfilled

====

Parameter: viability at 28.5 h, 10 µM. Scope: all listed entries.
Test: in vitro
Settings: human, hela cells, % viability
# output: bare number, implied unit %

Note down viability at 28.5 h, 10 µM recorded for O=C(NC(=S)Nc1ccc2oc(-c3cncc(Br)c3)nc2c1)c1cc([N+](=O)[O-])ccc1N1CCOCC1 [CBK268864]
118

Note down viability at 28.5 h, 10 µM recorded for COCC1CN(C(=O)Nc2nnc(Cc3ccc(C)cc3)s2)CCO1 (centres unmarked) [CBK306278]
83.3

Note down viability at 28.5 h, 10 µM recorded for O=C1CCCN1CCCNC(=O)N1CCCC(CO)C1 (centres unmarked) [CBK156063]
94.3

Note down viability at 28.5 h, 10 µM recorded for O=C(c1c[nH]c2ccccc12)C(O)C(c1ccccc1)N1CCOCC1 (centres unmarked) [CBK267802]
95.4

Next:
Note down viability at 28.5 h, 10 µM recorded for COc1ccc(-c2ccc(=O)n(CC(=O)NC(C(=O)O)c3ccccc3)n2)c(F)c1 (centres unmarked) [CBK286769]
97.3

Note down viability at 28.5 h, 10 µM recorded for CC(=O)N1CCCC[C@H]2[C@H]1C[C@@H](c1ccccc1)N2C(=O)CN1CCCCCC1 [CBK286120]
117

Note down viability at 28.5 h, 10 µM recorded for Nc1nonc1NC(=O)c1ccccc1Cl [CBK019040]
99.3

====

Parameter: viability at 28.5 h, 10 µM. Scope: all listed entries.
Test: in vitro
Conditions: human, hela cells, % viability
# output: bare number, implied unit %

Solved cases below.
Note down viability at 28.5 h, 10 µM recorded for O=C(NCCCn1ccnc1)c1cnn2c(C(F)(F)F)cc(-c3cccs3)nc12 [CBK263060]
88.7

Note down viability at 28.5 h, 10 µM recorded for CCn1cc(C2CN(S(=O)(=O)c3ccccc3OC(F)F)CCO2)cn1 (centres unmarked) [CBK304234]
106

Note down viability at 28.5 h, 10 µM recorded for Cc1cnc(Nc2cccc(C3CCCN3C(=O)CCOc3ccccc3C)n2)s1 (centres unmarked) [CBK285972]
112

Next:
Note down viability at 28.5 h, 10 µM recorded for COc1cc(OC)nc(C(NC(=O)C2CCN(Cc3cn(C)c4ccccc34)CC2)c2ccc(F)cc2)n1 (centres unmarked) [CBK148185]
90.7

Note down viability at 28.5 h, 10 µM recorded for O=C(O)CCc1ccc(-c2cccs2)n1CCOc1ccccc1Cl [CBK267885]
89

Note down viability at 28.5 h, 10 µM recorded for COc1ccc(-c2cn(-c3ccc(OC(F)(F)F)cc3)nn2)cc1 [CBK113024]
110

Note down viability at 28.5 h, 10 µM recorded for CNS(=O)(=O)c1cc(C(=O)N2CCN(c3ccccc3)CC2)ccc1OC [CBK270192]
88.9

Note down viability at 28.5 h, 10 µM recorded for Cc1ccc(-c2ccccc2CC2(C(=O)Nc3ccc(C(N)=O)cc3)CCOCC2)c(C)c1 [CBK286422]
95.9
